Assay: yeast display, Sf9 membrane polyspecificity reagent, FACS + sequencing; frameworks hold sequencing errors
QUANTITY: polyreactivity (PSR sort gate)

SEQUENCE CONTENT | polyreactivity (PSR sort gate)
QVQLVESGGGLVQAGGSLRLSCSASGRTFSSNAMGWYRKAPGKERELVAAITWSGGTTYYADSVKGRFTISRDNAKNTVYLQMNSQKPEDTAVYYCNAKRRGYTASVGYWGQGTQVTVSS | high polyreactivity
QVQLVESGGGLVQAGGSLRLSCAASGSTFPSYAMGWYRQAPGKESELVAAITNGGSTTYADSVKGRFTISRDNAKNTVYLQMNSLKPEDTAVYYCAARYYYYYYYIRRDYWGQGTQVTVSS | low polyreactivity
QVQLVESGGGLVQAGGSLRLSCAASGFTFIHYGMGWYRQAPGKERELVAAITWRGDRTYADSVKGRFTISRDNAKNTVYLQMNSLKPEDTAVYYCAVGFYYFSSWYSYDYWGQGTQVTVSS | high polyreactivity
QVQLVESGGGLVQAGGSLRLSCAASGFIFSNNAMGWYIEAPGKERELVAVINGGGSTYYADSVKGRFTISRDNAKNTVYLQMNSLKPEDTAVYYCARKSWPKEGRVDPGYDYWGQGTQVTVSS | low polyreactivity
QVQLVESGGGLVQAGGSLRLSCAASGRIFHSNAMGWYRQAPGKESELVADINRDGSTNYADSVKGRFTISRDNAKNTVYLQMNSLKPEDTAVYYCAKPYYSWPRYNHFEYWGQGTQVTVSS | low polyreactivity
QVQLVESGGGLVQAGGSLRLSCAASRSTFTGNAMGWYRQAPGNERELVASINGSSGSTYYADSVKGRFTISRDNAKNTVYLQMNSLKPEDTAVYYCAKDSFLHFPRVGWVGLEYWGQGTQVTVSS | low polyreactivity

Given the entry QVQLVESGGGLVQAGGRLRLSCAASGFIFKYNAMGWSRQAPGKERELVAAISRGGRTYYADSVKGRFTISRDNAKNTVYLQMNSLKPEDTAVYYCAAVSHYPAGYDYWGQGTQVTVSS , report its measured polyreactivity (PSR sort gate).
high polyreactivity

Now try QVQIVESGGGLVQAGGSLRLRCAASGRIFSWNAMGWSRQAPGKERELVPAITWRGTSTYYADSVKGRFTISRDIAKNTVYLQMISLKPEDTAVYFCNVGLYRDWYTFGLEYDYWGQGTQVSVSS .
low polyreactivity

Now try QVHLVESGGGLVQAGGSLRLSCAASGITFYRYAMGWYRLAPGTERELVAAISSSGGSTYYADSVKGRFTISRDNAKNTVYLQMNSLKPEDTAVYYCAAQYNVPRDKYYFWGQGTQVTVSS .
high polyreactivity

Now try QVQLVESGGGLVQAGGSLRLSCAASGRIFGTYAMGWYRQAPGKERELGAAITQSGGRTYYADSVKGRFTISRDNAKKTDYLQMKSLKPEDTAVYYCNKVTYRGIGLGYDYWGQGTQVTVSS .
high polyreactivity

Now try QVQLVESGGGLVQAGGSLRLSCAASGITIRRYAMGWYIQAPGKERELVAAITTGGGGTYYADSVKGRFTISRDNAKNTVYLQMNSLKPEDTAVYYCAATYWRTYPSYYWGQGTQVTVSS .
high polyreactivity

Now try QVQLVESGGGLVQAGGSLRLSCAASGRIFPLYAMGWYRKAPGKERELVAAISYSGGSTYYADSVKGRFTISRDNAKNTVYLQMISLKPEDTSVYYCAAQTARVSYRMGYWGQGTQVTVSS .
high polyreactivity

Hey, just so you know, these numbers are from the nanobody polyreactivity screen of Harvey et al. (2022).
